Hey, just so you know, these numbers are from patent US20090062267A1.

Molecular target: recombinant human α5β1 (Homo sapiens, UniProt P05556+P08648)
Sequence (P08648 42-1049): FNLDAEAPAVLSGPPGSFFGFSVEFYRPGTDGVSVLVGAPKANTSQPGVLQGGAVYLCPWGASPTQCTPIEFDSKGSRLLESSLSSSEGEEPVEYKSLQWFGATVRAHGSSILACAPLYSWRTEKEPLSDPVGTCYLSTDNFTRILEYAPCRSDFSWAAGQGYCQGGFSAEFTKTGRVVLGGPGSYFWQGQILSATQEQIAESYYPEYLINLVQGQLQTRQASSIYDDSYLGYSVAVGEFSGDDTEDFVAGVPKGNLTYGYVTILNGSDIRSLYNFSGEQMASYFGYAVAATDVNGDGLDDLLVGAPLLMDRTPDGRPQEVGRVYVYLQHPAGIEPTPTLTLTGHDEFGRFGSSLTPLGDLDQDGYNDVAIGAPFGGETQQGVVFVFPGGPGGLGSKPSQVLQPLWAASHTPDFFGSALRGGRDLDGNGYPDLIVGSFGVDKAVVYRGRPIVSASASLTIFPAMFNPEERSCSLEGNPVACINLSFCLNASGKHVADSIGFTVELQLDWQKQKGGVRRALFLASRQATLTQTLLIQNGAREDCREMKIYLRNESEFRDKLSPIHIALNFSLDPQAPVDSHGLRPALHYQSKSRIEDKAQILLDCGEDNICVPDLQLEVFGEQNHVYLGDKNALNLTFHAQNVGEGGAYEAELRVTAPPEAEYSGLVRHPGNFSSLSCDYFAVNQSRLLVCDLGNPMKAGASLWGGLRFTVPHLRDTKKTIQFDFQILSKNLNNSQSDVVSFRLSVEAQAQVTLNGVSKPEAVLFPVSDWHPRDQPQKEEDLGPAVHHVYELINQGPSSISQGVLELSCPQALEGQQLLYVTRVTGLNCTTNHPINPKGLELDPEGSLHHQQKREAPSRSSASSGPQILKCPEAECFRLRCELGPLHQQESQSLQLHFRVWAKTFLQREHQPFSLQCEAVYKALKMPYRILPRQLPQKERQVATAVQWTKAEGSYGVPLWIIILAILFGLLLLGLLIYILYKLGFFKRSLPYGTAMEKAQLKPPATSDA
Sequence (P05556 21-798): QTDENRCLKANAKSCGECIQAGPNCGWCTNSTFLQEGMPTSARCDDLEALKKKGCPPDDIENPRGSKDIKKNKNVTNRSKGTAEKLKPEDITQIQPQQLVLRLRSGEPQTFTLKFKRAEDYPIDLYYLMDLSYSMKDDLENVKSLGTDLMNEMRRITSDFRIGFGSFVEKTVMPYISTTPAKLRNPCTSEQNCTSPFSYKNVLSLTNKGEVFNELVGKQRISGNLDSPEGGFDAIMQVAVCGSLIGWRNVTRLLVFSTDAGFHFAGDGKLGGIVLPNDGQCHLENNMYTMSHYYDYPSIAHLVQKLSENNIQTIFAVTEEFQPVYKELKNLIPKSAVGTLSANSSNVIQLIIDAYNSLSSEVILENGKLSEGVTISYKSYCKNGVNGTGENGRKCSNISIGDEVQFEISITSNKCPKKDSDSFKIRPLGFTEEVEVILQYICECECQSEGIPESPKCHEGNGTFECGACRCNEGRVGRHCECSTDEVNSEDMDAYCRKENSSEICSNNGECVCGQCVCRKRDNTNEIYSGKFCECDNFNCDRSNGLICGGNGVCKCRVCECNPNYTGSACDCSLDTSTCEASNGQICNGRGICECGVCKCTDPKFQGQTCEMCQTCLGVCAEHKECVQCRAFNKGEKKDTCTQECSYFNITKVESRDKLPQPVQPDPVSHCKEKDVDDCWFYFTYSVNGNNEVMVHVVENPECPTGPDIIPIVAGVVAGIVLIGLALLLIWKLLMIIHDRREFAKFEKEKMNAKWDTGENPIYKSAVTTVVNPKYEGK
Experiment: In Vitro Binding Assay (a): inhibition of binding of α5β1 integrin to a fragment of human fibronectin (Fn9-10), Origen electrochemiluminescence
Conditions: geometric mean where tested more than once
pIC50 for assorted compounds
Scale explanation: pIC50 corresponds to minus log10 of a concentration expressed in moles per litre.

Example entries begin here.
O=C(N[C@@H](Cc1ccc(CCCc2ccc3c(n2)NCCC3)nc1)C(=O)O)c1sccc1Cl = 8.60
O=C(N[C@@H](Cc1ccc(OCCc2ccc3c(n2)NCCC3)nc1)C(=O)O)c1sccc1Cl = 8.15

Q: Value lookup for pIC50; key = `CNc1cccc(CCOc2ccc(C[C@H](NC(=O)c3ncccc3Cl)C(=O)O)cc2)n1`
Result: 7.62

Q: For the compound `CCn1nc(C)cc1C(=O)N[C@@H](Cc1ccc(OCCc2cccc(NC)n2)cc1)C(=O)O` , what pIC50 is on record?
Result: 7.14

Q: What value of measured pIC50 is listed for `COc1cscc1C(=O)N[C@@H](Cc1ccc(OCCc2ccc3c(n2)NCCC3)cc1)C(=O)O` ?
Result: 7.38

====

Target: recombinant human α5β1 (Homo sapiens, UniProt P05556+P08648)
Assay: In Vitro Binding Assay (a): inhibition of binding of α5β1 integrin to a fragment of human fibronectin (Fn9-10), Origen electrochemiluminescence
Details: geometric mean where tested more than once
The reader will find reported pIC50 values listed item by item below.
# log scale: pIC50 equals minus log10 of the concentration in mol/L

Use the examples below as a reference point.
CNc1cccc(CCOc2ccc(C[C@H](NC(=O)c3ccc(OC)nc3OC)C(=O)O)cc2)n1 = 6.45
CNc1cccc(CCOc2ccc(C[C@H](NC(=O)c3sccc3Cl)C(=O)O)cc2)n1 = 7.92
CNc1cccc(CCOc2ccc(C[C@H](NC(=O)c3cccn3C)C(=O)O)cc2)n1 = 7.26
CNc1cccc(CCOc2ccc(C[C@H](NC(=O)c3ccc(C)s3)C(=O)O)cc2)n1 = 6.64
CNc1cccc(CCOc2ccc(C[C@H](NC(=O)c3c(Cl)c4ccccc4n3C)C(=O)O)cc2)n1 = 6.95
CNc1cccc(CCOc2ccc(C[C@H](NC(=O)c3cc(Cl)sc3Cl)C(=O)O)cc2)n1 = 7.82

Q: Which value of pIC50 has been reported for `Cc1noc(C)c1C(=O)N[C@@H](Cc1ccc(CCCc2ccc3c(n2)NCCC3)cc1)C(=O)O` in the records?
Result: 8.66

Q: What does the record list as pIC50 for `CNc1cccc(CCOc2ccc(C[C@H](NC(=O)c3c[nH]nc3C)C(=O)O)cc2)n1` ?
Result: 6.89

Q: Name the reported pIC50 value associated with the molecule `CNc1cccc(CCOc2ccc(C[C@H](NC(=O)c3conc3C)C(=O)O)cc2)n1`
Result: 7.64

====

Biological target: recombinant human α5β1 (Homo sapiens, UniProt P05556+P08648)
Test: In Vitro Binding Assay (a): inhibition of binding of α5β1 integrin to a fragment of human fibronectin (Fn9-10), Origen electrochemiluminescence
Details: geometric mean where tested more than once
Item-by-item account of IC50

Guide cases for IC50, answers given:
CNc1cccc(CCOc2ccc(C[C@H](NC(=O)c3c(Cl)cncc3Cl)C(=O)O)cc2)n1 = 1 nM
CNc1cccc(CCOc2ccc(C[C@H](NC(=O)c3nc(C)oc3C)C(=O)O)cc2)n1 = 349 nM
CNc1cccc(CCOc2ccc(C[C@H](NC(=O)c3ccoc3C)C(=O)O)cc2)n1 = 21 nM
CNc1cccc(CCOc2ccc(C[C@H](NC(=O)c3ncc(Cl)cc3Cl)C(=O)O)cc2)n1 = 35 nM
O=C(N[C@@H](Cc1ccc(OCCc2ccc3c(n2)NCCO3)cc1)C(=O)O)c1c(Cl)cncc1Cl = < 1 nM
CNc1cccc(CCOc2ccc(C[C@H](NC(=O)c3scc(C)c3Cl)C(=O)O)cc2)n1 = 89 nM
CNc1cccc(CCOc2ccc(C[C@H](NC(=O)c3ncc(C(F)(F)F)cc3Cl)C(=O)O)cc2)n1 = 36 nM

Q: Given the entry `CCc1cc(C(=O)N[C@@H](Cc2ccc(OCCc3cccc(NC)n3)cc2)C(=O)O)cs1` , report its measured IC50.
Result: 75 nM
